Each recorded value in this set is attributed to ChEMBL document CHEMBL1137764.

Hi there, I'd appreciate the recorded zone of inhibition at 128 µg/mL for every entry that follows.
- System: Staphylococcus aureus
- procedure-summary: Antimicrobial activity against Staphylococcus aureus at 128 ug/ml after 24 hrs by agar diffusion technique
- Assay type: functional
- reported-conditions: read-out: DIZ
Give the number; mm is assumed, so skip it.

The compound listed as CCn1cc(C(=O)O)c(=O)c2cc(F)c(N3CCNCC3)cc21 [NORFLOXACIN] has a reported zone of inhibition at 128 µg/mL of 3

The compound listed as CCn1cc(C(=O)O)c(=O)c2cc(F)c(N3CCN(Cn4cnc5ccccc54)CC3)cc21 has a reported zone of inhibition at 128 µg/mL of 0

The compound listed as CCn1cc(C(=O)O)c(=O)c2cc(F)c(N3CCN(CN4CCOCC4)CC3)cc21 has a reported zone of inhibition at 128 µg/mL of 8
